Source of measurements: patent US20220073608A1

Target: T1, human SEMA4D, full length, on CHO-K1 cells (CHO-K1 hSEMA4D) (human, UniProt Q92854 22-862)
T1 construct: whole, on cells; also called human SEMA4D recombinant cells
T1 sequence (looked up): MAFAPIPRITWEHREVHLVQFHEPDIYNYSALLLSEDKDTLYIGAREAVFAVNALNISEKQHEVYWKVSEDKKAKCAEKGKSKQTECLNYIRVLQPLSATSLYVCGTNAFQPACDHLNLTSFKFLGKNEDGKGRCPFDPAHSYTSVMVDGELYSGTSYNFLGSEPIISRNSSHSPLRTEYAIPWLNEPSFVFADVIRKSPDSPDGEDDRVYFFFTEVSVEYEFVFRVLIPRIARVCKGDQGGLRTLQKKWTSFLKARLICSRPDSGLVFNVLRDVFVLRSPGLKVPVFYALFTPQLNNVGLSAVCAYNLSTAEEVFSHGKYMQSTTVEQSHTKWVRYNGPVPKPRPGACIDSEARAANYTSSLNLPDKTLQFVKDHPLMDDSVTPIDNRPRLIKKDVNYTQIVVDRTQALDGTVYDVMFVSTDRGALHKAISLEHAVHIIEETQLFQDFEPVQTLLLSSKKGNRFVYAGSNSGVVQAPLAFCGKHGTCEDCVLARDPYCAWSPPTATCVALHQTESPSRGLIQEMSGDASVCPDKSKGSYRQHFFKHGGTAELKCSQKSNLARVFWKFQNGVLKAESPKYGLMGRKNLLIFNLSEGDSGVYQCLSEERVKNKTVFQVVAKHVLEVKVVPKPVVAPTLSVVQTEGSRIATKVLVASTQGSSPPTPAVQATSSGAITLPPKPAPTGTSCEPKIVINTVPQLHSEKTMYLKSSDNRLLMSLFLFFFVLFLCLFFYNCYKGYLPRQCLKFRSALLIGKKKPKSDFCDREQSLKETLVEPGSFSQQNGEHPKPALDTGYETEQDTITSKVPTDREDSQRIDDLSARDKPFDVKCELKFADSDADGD
Assay: FACS, CHO-K1 hSEMA4D cells; Ab 13.3 nM
property: MFI
Give bare numbers.

**Q:** Which MFI is reported for this binder? 31C11G2 (antibody, V domains shown, Mouse monoclonal antibody purified from hybridoma supernatant on protein A) VH: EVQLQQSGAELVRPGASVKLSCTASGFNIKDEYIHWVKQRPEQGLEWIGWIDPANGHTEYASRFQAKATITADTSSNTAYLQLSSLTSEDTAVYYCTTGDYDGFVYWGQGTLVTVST VL: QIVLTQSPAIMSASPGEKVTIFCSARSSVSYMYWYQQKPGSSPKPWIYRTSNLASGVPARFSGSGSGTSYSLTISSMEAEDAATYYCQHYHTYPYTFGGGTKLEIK
**A:** 6670
